- SETUP_CONDITIONS: plasma; 4 sprays; mixed model
MEASURED_ENDPOINT: Cmax, Geometric LS Mean Ratio (Severe RI/Normal), Estimate

[
  {
    "MOLECULE": "CCCCCc1cc(O)c2c(c1)OC(C)(C)[C@@H]1CCC(C)=C[C@@H]21 [THC, Δ-9-tetrahydrocannabinol, reference compound]",
    "VALUE": 0.8
  },
  {
    "MOLECULE": "C=C(C)[C@@H]1CCC(C)=C[C@H]1c1c(O)cc(CCCCC)cc1O [CBD, Cannabidiol, reference compound]",
    "VALUE": 1.11
  },
  {
    "MOLECULE": "C=C(C)[C@@H]1CCC(CO)=C[C@H]1c1c(O)cc(CCCCC)cc1O [7-OH-CBD]",
    "VALUE": 1.89
  },
  {
    "MOLECULE": "CCCCCc1cc(O)c2c(c1)OC(C)(C)[C@@H]1CCC(CO)=C[C@@H]21 [11-OH-THC]",
    "VALUE": 2.13
  },
  {
    "MOLECULE": "C=C(C)[C@@H]1CCC(C(=O)O)=C[C@H]1c1c(O)cc(CCCCC)cc1O [7-COOH-CBD]",
    "VALUE": 1.4
  },
  {
    "MOLECULE": "CCCCCc1cc(O)c2c(c1)OC(C)(C)[C@@H]1CCC(C(=O)O)=C[C@@H]21 [11-COOH-THC]",
    "VALUE": 1.15
  }
]
